Sourced from ChEMBL document CHEMBL1125060

System: MDCK
Assay: In vitro antiviral activity against influenza virus (type A0/PR/8/34) in Madin-Darby canine kidney (MDCK) host cell cultures
Assay type: functional, Canis lupus familiaris
Observed Property: Virus rating
Answers are plain numbers.

Worked cases, answers included:
Nc1nc(Cl)c2ncn(C3CC(CO)C(O)C3O)c2n1 (configuration not stated) : 0
Nc1nc(O)c2ncn(C3CC(CO)C(O)C3O)c2n1 (configuration not stated) : 0
Nc1nc(Cl)c2nnn(C3CC(CO)C(O)C3O)c2n1 (configuration not stated) : 0.3

Look at each compound and report its Virus rating.
1. Nc1nc(N)c2ncn(C3CC(CO)C(O)C3O)c2n1 (configuration not stated)
2. Nc1nc(N)c2nnn(C3CC(CO)C(O)C3O)c2n1 (configuration not stated)
3. NC(=O)c1ncn([C@@H]2O[C@H](CO)[C@@H](O)[C@H]2O)n1 [RIBAVIRIN]
4. Nc1nc(O)c2nnn(C3CC(CO)C(O)C3O)c2n1 (configuration not stated)

1. 0
2. 0
3. 3.4
4. 0.2
